Items are presented alongside their recorded Anti-CD28 Fab (SEQ ID NOs: 696, 697) signal.
# tested-on: T1, Anti-CD28 Fab (SEQ ID NOs: 696, 697)
# T1 construct: In the phage ELISA the Fab was biotinylated and captured on neutravidin coated plates
# protocol-text: phage binding ELISA, clonal phage on biotinylated anti-CD28 Fab captured on neutravidin plates, anti-M13 HRP detection
Where no end group is shown, it is not given here.
Format: numeric value only, no unit, no commentary.

Look up and report measured Anti-CD28 Fab (SEQ ID NOs: 696, 697) signal for this entry: YCDGHSPQYMQKCL (cysteine pairing not given here; also: displayed on phage by fusion to pIII, pIII and linker sequence not given here, Peptide-87 library clone, tested as clonal phage supernatant) [Phage-840]
1.76

Look up and report measured Anti-CD28 Fab (SEQ ID NOs: 696, 697) signal for this entry: YCDGHAPVYMAKCL (Peptide-87 library clone, tested as clonal phage supernatant) [Phage-850]
1.75

Switching to the query record.
Look up and report measured Anti-CD28 Fab (SEQ ID NOs: 696, 697) signal for this entry: YCDGHSPEYMNKCL (Peptide-87 library clone, tested as clonal phage supernatant) [Phage-849]
1.75
